- target.entity: recombinant human or murine heat shock protein 70 (hsp70) (human or murine), P0DMV8
- Sequence (P0DMV8 whole entry): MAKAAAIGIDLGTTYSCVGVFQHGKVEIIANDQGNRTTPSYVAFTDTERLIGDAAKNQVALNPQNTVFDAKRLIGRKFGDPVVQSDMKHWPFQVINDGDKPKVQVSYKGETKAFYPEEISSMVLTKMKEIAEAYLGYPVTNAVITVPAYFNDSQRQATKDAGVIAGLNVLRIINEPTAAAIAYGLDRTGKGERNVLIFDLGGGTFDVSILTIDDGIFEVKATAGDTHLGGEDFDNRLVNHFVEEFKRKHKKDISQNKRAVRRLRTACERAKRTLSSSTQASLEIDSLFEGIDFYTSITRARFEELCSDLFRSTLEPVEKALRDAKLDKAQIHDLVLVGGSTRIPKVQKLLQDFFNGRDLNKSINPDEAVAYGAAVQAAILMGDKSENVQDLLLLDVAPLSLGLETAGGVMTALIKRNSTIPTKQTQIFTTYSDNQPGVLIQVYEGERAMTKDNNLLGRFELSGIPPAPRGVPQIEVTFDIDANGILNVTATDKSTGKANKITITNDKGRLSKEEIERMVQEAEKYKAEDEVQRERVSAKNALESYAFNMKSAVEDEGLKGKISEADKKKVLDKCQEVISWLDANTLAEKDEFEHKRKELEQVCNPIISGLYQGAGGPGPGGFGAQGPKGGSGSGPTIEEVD
- experimental.protocol: binding inhibition assay (Hill plot) against tritiated … on hsp70
reported.property: Kd (µM)
Kindly provide the numeric value in µM only, without the unit symbol.

# annotated cases, reported Kd shown
# binder, Kd [µM]
measured = [
    ("FYQLALTW (modifications not checked)", 5.9),
    ("RKLFFNLRW (modifications not checked) […]", 15),
]

Input: For SIINFEKLGSGRKLFFNLRW (modifications not checked) [SIINFEKLgsg…] , what is its reported Kd?
Output: 7

Input: Which Kd is listed for SIINFEKLGSGFYQLALTW (modifications not checked) [SIINFEKLgsgFYQLALTW] ?
Output: 1.43
